growth inhibition values by entry
# protocol.text: NCI Yeast Anticancer Drug Screen. Data for the mec2-1 strain (AID 157)
# test.settings: S. cerevisiae mec2-1 strain, at 50.0 µM, active compounds read high
Compounds without any hit were thinned out: in the full panel of roughly 79,000, 15% have a hit.
Reply numerically in %, unit not repeated.

Reference set, count: 2
1) CSSC(SC)SC ... -7.85
2) CCCCCCCCCCCCCC/C=N/Nc1ccc([N+](=O)[O-])cc1[N+](=O)[O-] ... 24

Field growth inhibition (entry CC(=O)OCC1OC(Sc2nc3ncnc(N)c3[nH]2)C(OC(C)=O)C(OC(C)=O)C1OC(C)=O (centres undefined) ) reads -1.3

Entry Cc1ccccc1NC(=S)N1CCOCC1 , growth inhibition reported as 14.4
